The reported measurements were obtained from ChEMBL document CHEMBL1681716.

Target: Inhibitor of nuclear factor kappa-B kinase subunit alpha (Homo sapiens, UniProt O15111)
Sequence (O15111 whole entry): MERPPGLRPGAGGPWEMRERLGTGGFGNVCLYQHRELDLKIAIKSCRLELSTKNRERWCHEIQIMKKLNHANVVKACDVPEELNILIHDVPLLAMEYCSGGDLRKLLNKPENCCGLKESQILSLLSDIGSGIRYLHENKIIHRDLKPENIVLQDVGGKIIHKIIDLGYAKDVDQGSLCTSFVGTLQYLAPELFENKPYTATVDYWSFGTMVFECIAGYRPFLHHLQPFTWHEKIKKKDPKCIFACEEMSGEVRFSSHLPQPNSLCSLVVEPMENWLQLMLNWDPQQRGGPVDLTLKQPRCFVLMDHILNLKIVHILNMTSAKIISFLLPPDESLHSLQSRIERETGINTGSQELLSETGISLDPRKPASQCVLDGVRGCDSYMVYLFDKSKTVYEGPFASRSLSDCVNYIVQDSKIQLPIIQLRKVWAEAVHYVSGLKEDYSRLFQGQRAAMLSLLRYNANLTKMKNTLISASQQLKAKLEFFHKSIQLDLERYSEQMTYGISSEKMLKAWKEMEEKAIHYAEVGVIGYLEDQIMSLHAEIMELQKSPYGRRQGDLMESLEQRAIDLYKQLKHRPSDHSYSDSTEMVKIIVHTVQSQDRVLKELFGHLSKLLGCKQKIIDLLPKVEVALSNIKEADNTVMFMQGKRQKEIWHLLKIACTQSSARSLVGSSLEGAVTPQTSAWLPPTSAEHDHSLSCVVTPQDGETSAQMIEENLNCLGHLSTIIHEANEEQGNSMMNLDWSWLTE
Experiment: Inhibition of human IKK-alpha by substrate phosphorylation assay
pIC50: −log10 of the molar value.
Below is a list of entries, each paired with its recorded pIC50 value.
value_type: pIC50

[
  {
    "molecule": "NC(=O)Nc1sc2c(c1C(N)=O)CCc1nn(C3CCCN(Cc4ccc(F)cc4F)C3)cc1-2 (stereo unspecified)",
    "reported_value": "< 4.00"
  },
  {
    "molecule": "COc1ccc(CN2CCCC(n3cc4c(n3)CCc3c-4sc(NC(N)=O)c3C(N)=O)C2)c(F)c1 (stereo unspecified)",
    "reported_value": "< 4.00"
  },
  {
    "molecule": "NC(=O)Nc1sc2c(c1C(N)=O)CCc1nn(C3CCCN(Cc4ccc(N)cc4F)C3)cc1-2 (stereo unspecified)",
    "reported_value": 5.05
  },
  {
    "molecule": "NC(=O)Nc1sc2c(c1C(N)=O)CCc1nn(C3CCCN(Cc4ccccc4)C3)cc1-2 (racemic)",
    "reported_value": "< 4.00"
  },
  {
    "molecule": "NC(=O)Nc1sc2c(c1C(N)=O)CCc1nn(C3CCCN(Cc4ccc(Cl)cc4)C3)cc1-2 (stereo unspecified)",
    "reported_value": "< 4.00"
  },
  {
    "molecule": "NC(=O)Nc1sc2c(c1C(N)=O)CCc1nn(C3CCCN(Cc4ccc(Cl)cc4F)C3)cc1-2 (stereo unspecified)",
    "reported_value": 4.39
  }
]

* * *

target: Inhibitor of nuclear factor kappa-B kinase subunit beta (Homo sapiens); test: Inhibition of human IKK-beta by substrate phosphorylation assay
Sequence (O14920 whole entry): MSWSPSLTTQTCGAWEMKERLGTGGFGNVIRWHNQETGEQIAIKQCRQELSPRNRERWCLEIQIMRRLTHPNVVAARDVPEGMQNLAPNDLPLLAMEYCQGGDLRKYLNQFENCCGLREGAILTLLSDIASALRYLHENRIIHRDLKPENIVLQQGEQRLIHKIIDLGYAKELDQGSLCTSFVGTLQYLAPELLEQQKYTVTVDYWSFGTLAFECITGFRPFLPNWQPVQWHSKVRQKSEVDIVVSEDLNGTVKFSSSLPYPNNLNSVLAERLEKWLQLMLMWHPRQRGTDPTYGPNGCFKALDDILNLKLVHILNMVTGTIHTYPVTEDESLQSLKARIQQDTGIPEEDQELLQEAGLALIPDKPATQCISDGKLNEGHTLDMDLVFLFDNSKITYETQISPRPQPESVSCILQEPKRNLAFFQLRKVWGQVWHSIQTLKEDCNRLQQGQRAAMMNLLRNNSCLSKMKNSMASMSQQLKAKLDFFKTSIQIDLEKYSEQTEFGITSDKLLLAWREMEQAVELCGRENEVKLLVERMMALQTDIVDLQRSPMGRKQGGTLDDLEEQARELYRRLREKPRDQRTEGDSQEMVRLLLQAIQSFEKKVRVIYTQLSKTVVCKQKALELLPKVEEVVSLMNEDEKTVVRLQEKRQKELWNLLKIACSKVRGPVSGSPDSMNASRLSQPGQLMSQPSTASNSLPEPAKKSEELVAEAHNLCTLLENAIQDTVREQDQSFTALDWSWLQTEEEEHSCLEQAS
pIC50: −log10 of the molar value.

[
  {
    "compound": "NC(=O)Nc1sc2c(c1C(N)=O)CCc1nn(Cc3ccccn3)cc1-2",
    "tested_on": "Inhibitor of nuclear factor kappa-B kinase subunit beta (Homo sapiens)",
    "pIC50": 5.35
  },
  {
    "compound": "NC(=O)Nc1sc2c(c1C(N)=O)CCc1nn(C3CN(Cc4ccccc4)C3)cc1-2",
    "tested_on": "Inhibitor of nuclear factor kappa-B kinase subunit beta (Homo sapiens)",
    "pIC50": 5.15
  },
  {
    "compound": "NC(=O)Nc1sc2c(c1C(N)=O)CCc1nn(C3CCCN(Cc4cc(F)c(F)cc4F)C3)cc1-2 (stereo not given)",
    "tested_on": "Inhibitor of nuclear factor kappa-B kinase subunit beta (Homo sapiens)",
    "pIC50": 5.51
  },
  {
    "compound": "NC(=O)Nc1sc2c(c1C(N)=O)CCc1nn(C3CCN(Cc4ccccc4)CC3)cc1-2",
    "tested_on": "Inhibitor of nuclear factor kappa-B kinase subunit beta (Homo sapiens)",
    "pIC50": 5.32
  },
  {
    "compound": "CN(C)CCn1cc2c(n1)CCc1c-2sc(NC(N)=O)c1C(N)=O",
    "tested_on": "Inhibitor of nuclear factor kappa-B kinase subunit beta (Homo sapiens)",
    "pIC50": 5.06
  }
]
